Assay: yeast display, Sf9 membrane polyspecificity reagent, FACS + sequencing; frameworks hold sequencing errors
measurement.name: polyreactivity (PSR sort gate)

Use these answered entries as a reference point.
chain	result.value
QVQLVESGGGLVQAGGSLRLSCAASGSIFARYTMGWYRQAPGKERELVAAISTSGSRTYYADSVKGRFTISRDNAKNCVYLLMNSLKPEDTAVYYCNVAWIWGKYDYWGPGTQVTVSS	high polyreactivity
QVQLVESGGGLVQAGGSLRLSCAASGSTFIANALGWYRQAPGKEREFVAAITWSGGSTYYADSVKGRFTLSRDNAKNTVFLQMNSLKPEDTAVYYCAKKGRTARGRYDYWGQGTQVTVSS	low polyreactivity
QVQLVESGGGLVQAGGSLRLSCAASGSIFPSYAMGWYRQAPGKERELVAAISVSGGSTYYADSVKGRFTISRDTAKNTVYLQMNSLKPEDTAVYYCAAQHGYPRYYYWGQGTQVTVSS	high polyreactivity
QVQLVESGGGLVQAGGSLRLSCAASGSTFGYYAMGWYRQAPGKERELVAVITRSGDRTYYADSVKGRFTISRDNAKNTVYLQMNSLKPEDTGVYYCAARATSAGGVAEYYWGQGTQVTVSS	high polyreactivity
QVQLVQSCRVLLQARGSHTLSCADSGTTFGINANGCYTHSPGKERELVAAITFISGSTNYADSVKGRFTISRDNAKNTVYLQMNSLKPEDTAVYYCAADSVYYAGYDVDYWGQGTQVTVSS	low polyreactivity

input: Form field: reported polyreactivity (PSR sort gate) of `QVQLVESGGGLVQAGGSLRLSCAASGRTFYSYAMGWYRQAPGKERELVAGITWSGTSTYYADSVKGRFTISRDNAKNTVYLQMNSLKPEDTAVYYCAADSIQYTARPYDYWGQGTQVTVSS`
output: low polyreactivity

input: Bench note: what polyreactivity (PSR sort gate) did `QVQLVESGGGLVQAGGSLRLSCAASGRIFYSNAMGWYRQAPGKAWELVATISRRGGRTYSADSVKGRFTLSRDIAKNTVYLQMNSLKPEDTAVYYCNANDRNAGSSRGGRLYDSWGQGTQVTVSS` show?
output: high polyreactivity

input: // returns reported polyreactivity (PSR sort gate) for input `QVQLVESGGGLVQAGGSLRLRCAASGLTFTYYAMGWYRQAPGKERELVAAISSGGNTNYADSVKGRFTISRDNAKNTVYLQMNSLKPEDTGVYYCAADDYYDHRVIYRSWYDYWGQGTQVTVSS`
output: low polyreactivity

input: Can you look up the measured polyreactivity (PSR sort gate) of `QVQLVESGGGLVQAGGSLRLSCAASGSIFYWYDMGWYRQAPGKERELVAAITNDGDSTYYADSVKGRFTISRDNAKNTVYLQMNSLKPEDTAVYYCAADVLFYYEYGSWGQGTQVTVSS` for me?
output: low polyreactivity

input: Any idea what polyreactivity (PSR sort gate) was measured for `QVQLVESGGGLVQAGGSLRLSCAASGSIFYLYAMGWYRQAPGKEREFVAAITSSSGSTHYADSVKGRFTISRDNAKNTVYYQMNSLKPEDTAVYYCAKDYGPWTYDYWGQGTQVTVSS` ?
output: low polyreactivity

input: What value of polyreactivity (PSR sort gate) has been reported for the following sequence? `QVQLVESGGCLVQAGGSLRLSCAASGSIFDAYDKGWYRQAPGKERELVAAISRSGASTYYADSVKGRFTISRDNAKNTVYLQMNSLKPEDTAVYSCAARDRQRVSYGYWGQGTQVTVTS`
output: high polyreactivity

---

Assay: yeast display, Sf9 membrane polyspecificity reagent, FACS + sequencing; frameworks hold sequencing errors
measurement.name: polyreactivity (PSR sort gate)

chain	polyreactivity (PSR sort gate)
QVKLHESGGGLVQAGDSQRLSCAASGNIFRFTDMGWSRQAPRKERELVAAINAGSTTYYADSVKGRFTISRDNAKNTVYLQKNSLKPEDTAVYYWAVYYLGSGTFGYWGQGAQVTVSS	high polyreactivity
QVQLVESGGGLVQAGGSLRLSCAASGRTFRGYVMGWYRQAPGKERELVAAISKSGGSTYYADSVKGRFTISRDNAKNTVYLQMNSLKPEDTAVYYCAKNYRYYVFYDGFDYWGQGTQVTVSS	low polyreactivity
QVQLVESGGGKVQAGGSLRLSCAASGFIFRYYAMGWYRQAPGKERELGAAISKRGGSTYYADSVKGRFTISRDNAKNTVYLQMNSLKADDTAVYYCARGYPIDPSFDTYDYWGQGTQVTVSS	high polyreactivity
QVQLVESGGGLVQAGGSLRLSCAASGSTFYPNAMGGYRQAPGKERELVATITQRGGTTYYADSVKGRFTISRDNAKNTVYLQMNSLKPEDTAVYYCNAGPVRLPYDSWGQGTQVTVSS	low polyreactivity

input: Query: polyreactivity (PSR sort gate); subject: `QVQLVESGGGLVQAGGSLRLSCAASGIIFESYAMGSYRQAPGKEREFVAAISSRGGSTYYADSVKGRFTISRDNAKNTVYLQMNSLKPEDTAVYYCAARGYRRTFDYREYDSWGQGTQVTVSS`
output: low polyreactivity

---

Assay: yeast display, Sf9 membrane polyspecificity reagent, FACS + sequencing; frameworks hold sequencing errors
measurement.name: polyreactivity (PSR sort gate)

chain	result.value
QVQLVESGGGLVQAGGSLRLSCAASGSTFYPYAMGWYRPAPGKERELVASITLRGSSTYYADSVKGRFTISRDNAKNTVYLQMNSLKPEDTAVYYCAKEGYLYLWRYDYWGQGTQVTVSS	high polyreactivity
QVHLVESGGGLVQAGGSHRLSCAASGLNFPPNAMGWYRQAPAKESELVASITRSGGSTYYADSVKGRFTISRDNAKNTVYLQMNSLKRDDTAVYYCAAYLDTSRYGVLYDYWGQGTQVTVSS	low polyreactivity
QVQLVESGGGLVQAGGSLRLSCAASGRIFSQNAMGWYRQAPGKEREVVAVISRGGSTNYADSVKGRFTISRDNAKNTVYLQMNSLKPEDTAVYYCAADYAYIRSVWKWFIGDYWGQGTQVTVSS	low polyreactivity
QVQLVESGGGLVQAGGSLRLSCAASGSTLQINGMGGYRQAPGKERELVAAISIGGDTNYADSVKGRFTISRDNAKNTEMNSLKTEDTAVYYCNTDYFGSLVVVIFDYWGQGTQVTVSS	low polyreactivity
QVQLVESGGGLVQAGGSLRLSCAASGRTFYEYTIGWYRQAPGKERELVAAITWSVGSTYYADSVKGRFTISRDIAKNTVYLQMNSLKPEETAVYDCAAYYYVWYYYWGQGTQVTVSS	low polyreactivity

input: State the recorded polyreactivity (PSR sort gate) for this entry: `QVQLVESGGGLVQAGGSLRLSCAASGIIFYDYAMGWYRQAPGKERELVAAITSNGDNTYYADSVKGRFTISRDNAKNTVYLQMNSLKPEDTAVYYCAVDGSFAADFDNYLEEYGYWGQGTLVTVSS`
output: low polyreactivity

input: For the sequence shown here, `QVQLVESGGGLVQAGGSLRLSCAASGLTFTHYARGWYREAPGKERELVAAISRSGGTTYYADSVKGRFTISRDNAKNTLYFQMNSLKPEDTAVYYCAARWWYRYNYDYWGLGTQVTVSS` , give the reported polyreactivity (PSR sort gate).
output: high polyreactivity

input: Need polyreactivity (PSR sort gate), item `QVQLVESGAGLVQAGGSLRLSCAPSGSIFWWYAMVWYRQAPGKERELVAVISGGTSTYYADSVKGRFTISRDNAKNTVYLQMNSLKPEDTAVYYCNADVFSKVSYFRYIEYDYWGQGTQVTVSS`
output: high polyreactivity

input: Param item = `QVQLVESGGGLVQAGGSLRLSCAASGSILHPNGMGWYRQAPGKERELVAAITINGDSTYYADSVKGRFTISRDNAKNTVYLQMNSLKPEDTAVYYCAVDGWPTGWYYYWGQGTQVTVSS` ; retrieve measured polyreactivity (PSR sort gate).
output: low polyreactivity

input: Query: polyreactivity (PSR sort gate); subject: `QVQLVESGGGLVQAGGSLRLSCAASGSTFFLYAMGWYRQAPGKERELVAAITYTDGDTYYADSVKGRFTISRDNAKNTVYLQMNSLKPEDTAVYYCAAYRFPYFPSIAYYYTYYSWGQGTQVTVSS`
output: low polyreactivity

input: Need polyreactivity (PSR sort gate) of `QVQLVESGGGLVQAGGSLRLSCAASGSTFQVYAMGWYRQAPGKERELVAAIRYRDGNTYYADSVKGRFTISRDNAKNTVYLQMNSLKPEETAVYYCNARLYMPSGYRRSNGYESDYWGQGTQVTVSS` , thanks.
output: high polyreactivity

---

Test: yeast display, Sf9 membrane polyspecificity reagent, FACS + sequencing; frameworks hold sequencing errors
measurement.name: polyreactivity (PSR sort gate)

chain	result.value
QVQLVESGGGLVQSGGSHPLSCAASGRTFYSYAMRGYRQAPGKDSEFVAAIRRCGSSTYYADSVKGRFTISRDNAKNTVYLQMNSLKPEDTAVYYCNAAPYIYPIRGNYWGQGTQETVSS	high polyreactivity
QVQLVESGGGLVQAGGSLRLSCAASGLTFYPYAMGWYRQAPGKERELVAAITRSGTSTFYADSVKGRFTISRDNAKNTVYLQMNSLKPEETAVYYCAKGYFFVGTDWESYYWGQGTQVTVSS	low polyreactivity
QVQLGESGGGLVQAGGSLRVICAASGFIFRDYAMGWYIQAPGKERELFAAIRSTTGSTYYADSVKGRFTISRDNSKNTVYLQMNSLKPEDTAVYYCAAAYPFYADMDYSGQGTQVTVSS	low polyreactivity
QVQLVESGGGLVQAGGSLRLSCAASGSIFKTYAMGWYRQAPGKERELVAAISRSTSRTYYADSVKGRFTISRDNAKNTVYLQMNSLKPEDTAVYYCAAHRSTRGTKLYYWGQGTQVTVSS	high polyreactivity

Next up:
input: # query: polyreactivity (PSR sort gate) of entry `QVQLVESGGGLVQAGGSLRLSCAASGGLFTAYTMGWYRQAPGKERELVAVISSGGGRTYYADSVKGRFTISRDNAKNSVYLQMNSRKPEDTAVYYCNARVYVSANKYDYWGQGTQVTVSS`
output: high polyreactivity
